Numbers sourced from paper PMC10682911.

- Assay Target: hCA IX (Homo sapiens, UniProt Q16790)
- Protocol Summary: biochemical
- Assay Setup: SI, hCA IX over hCA II (ratio of Ki)
Metric Name: Selectivity analysis hCA II/IX

> print(dat)
                           structure.smiles                     metric.name  value.reported
1  COc1cc(OC)cc(C(C)=NNC(=O)CSc2nc3ccccc3c(=O)n2CCc2ccc(S(N)(=O)=O)cc2)c1  Selectivity analysis hCA II/IX            2.48

I: COc1cc(C=NNC(=O)CSc2nc3ccccc3c(=O)n2CCc2ccc(S(N)(=O)=O)cc2)cc(OC)c1OC
II: COc1ccc(OC)c(C(C)=NNC(=O)CSc2nc3ccccc3c(=O)n2CCc2ccc(S(N)(=O)=O)cc2)c1
III: COc1ccc(C=NNC(=O)CSc2nc3ccccc3c(=O)n2CCc2ccc(S(N)(=O)=O)cc2)cc1OC
IV: COc1ccc(C=NNC(=O)CSc2nc3ccccc3c(=O)n2CCc2ccc(S(N)(=O)=O)cc2)cc1
-- ask In this exercise, place the 4 molecules in ascending sequence of their recorded Selectivity analysis hCA II/IX. Please, when replying, give the labels in the order that was requested.
-- reply IV, III, I, II
(IV: 1.68, III: 2.94, I: 5.38, II: 7.77)
